# Test system: Candida albicans
# Protocol Details: In vitro antifungal activity against Candida albicans (CA 62376); Weak
# Format: functional, organism-based

{"columns": ["Mol", "MIC"],
 "data": [
  ["CO[C@@H]1C[C@H](C[C@@H](C)[C@@H]2CC(=O)[C@H](C)/C=C(\\C)[C@@H](O)[C@@H](OC)C(=O)[C@H](C)C[C@H](C)/C=C/C=C/C=C(\\C)[C@@H](N(O)C(=O)OCC(C)C)C[C@@H]3CC[C@@H](C)[C@@](O)(O3)C(=O)C(=O)N3CCCC[C@H]3C(=O)O2)CC[C@H]1O", "Weak"],
  ["CO[C@@H]1C[C@H](C[C@@H](C)[C@@H]2CC(=O)[C@H](C)/C=C(\\C)[C@@H](O)[C@@H](OC)C(=O)[C@H](C)C[C@H](C)/C=C/C=C/C=C(\\C)[C@H](N(O)C(=O)N(C)C)C[C@@H]3CC[C@@H](C)[C@@](O)(O3)C(=O)C(=O)N3CCCC[C@H]3C(=O)O2)CC[C@H]1O", "Weak"],
  ["CO[C@@H]1C[C@H](C[C@@H](C)[C@@H]2CC(=O)[C@H](C)/C=C(\\C)[C@@H](O)[C@@H](OC)C(=O)[C@H](C)C[C@H](C)/C=C/C=C/C=C(\\C)[C@@H](N(O)C(N)=O)C[C@@H]3CC[C@@H](C)[C@@](O)(O3)C(=O)C(=O)N3CCCC[C@H]3C(=O)O2)CC[C@H]1O", "Weak"],
  ["CO[C@@H]1C[C@H](C[C@@H](C)[C@@H]2CC(=O)[C@H](C)/C=C(\\C)[C@@H](O)[C@@H](OC)C(=O)[C@H](C)C[C@H](C)/C=C/C=C/C=C(\\C)[C@H](N(O)C(=O)OCC(C)C)C[C@@H]3CC[C@@H](C)[C@@](O)(O3)C(=O)C(=O)N3CCCC[C@H]3C(=O)O2)CC[C@H]1O", "Weak"],
  ["CCCCOC(=O)N(O)[C@H]1C[C@@H]2CC[C@@H](C)[C@@](O)(O2)C(=O)C(=O)N2CCCC[C@H]2C(=O)O[C@H]([C@H](C)C[C@@H]2CC[C@@H](O)[C@H](OC)C2)CC(=O)[C@H](C)/C=C(\\C)[C@@H](O)[C@@H](OC)C(=O)[C@H](C)C[C@H](C)/C=C/C=C/C=C/1C", "Weak"],
  ["CO[C@@H]1C[C@H](C[C@@H](C)[C@@H]2CC(=O)[C@H](C)/C=C(\\C)[C@@H](O)[C@@H](OC)C(=O)[C@H](C)C[C@H](C)/C=C/C=C/C=C(\\C)[C@H](N(O)C(=O)OC(C)C)C[C@@H]3CC[C@@H](C)[C@@](O)(O3)C(=O)C(=O)N3CCCC[C@H]3C(=O)O2)CC[C@H]1O", "Weak"],
  ["CO[C@@H]1C[C@H](C[C@@H](C)[C@@H]2CC(=O)[C@H](C)/C=C(\\C)[C@@H](O)[C@@H](OC)C(=O)[C@H](C)C[C@H](C)/C=C/C=C/C=C(\\C)[C@H](N(O)C(N)=O)C[C@@H]3CC[C@@H](C)[C@@](O)(O3)C(=O)C(=O)N3CCCC[C@H]3C(=O)O2)CC[C@H]1O", "Weak"]
]}

====

# Test system: Candida albicans
# Protocol Details: In vitro antifungal activity against […] (CA 34140); Not affected.
# Format: functional
Assay Readout: MIC

{"columns": ["Mol", "Target", "Assay Readout", "Measured"],
 "data": [
  ["CO[C@@H]1C[C@H](C[C@@H](C)[C@@H]2CC(=O)[C@H](C)/C=C(\\C)[C@@H](O)[C@@H](OC)C(=O)[C@H](C)C[C@H](C)/C=C/C=C/C=C(\\C)[C@H](N(O)C(=O)OC(C)C)C[C@@H]3CC[C@@H](C)[C@@](O)(O3)C(=O)C(=O)N3CCCC[C@H]3C(=O)O2)CC[C@H]1O", "Candida albicans", "MIC", "~100 µg/mL"],
  ["CCCCOC(=O)N(O)[C@H]1C[C@@H]2CC[C@@H](C)[C@@](O)(O2)C(=O)C(=O)N2CCCC[C@H]2C(=O)O[C@H]([C@H](C)C[C@@H]2CC[C@@H](O)[C@H](OC)C2)CC(=O)[C@H](C)/C=C(\\C)[C@@H](O)[C@@H](OC)C(=O)[C@H](C)C[C@H](C)/C=C/C=C/C=C/1C", "Candida albicans", "MIC", "~100 µg/mL"],
  ["CO[C@@H]1C[C@H](C[C@@H](C)[C@@H]2CC(=O)[C@H](C)/C=C(\\C)[C@@H](O)[C@@H](OC)C(=O)[C@H](C)C[C@H](C)/C=C/C=C/C=C(\\C)[C@@H](N(O)C(=O)OCC(C)C)C[C@@H]3CC[C@@H](C)[C@@](O)(O3)C(=O)C(=O)N3CCCC[C@H]3C(=O)O2)CC[C@H]1O", "Candida albicans", "MIC", "~100 µg/mL"]
]}

Each recorded value in this set is attributed to ChEMBL document CHEMBL1133206.
